System: Tov-21-G
Test: Primary qHTS to identify gynecologic anti-cancer compounds using libraries of approved drugs and bioactive compounds (AID 1345084); note: nearly all actives have a fitted effect of over 55% in size
Settings: Gynecologic cancer cell panel viability, ATPlite luminescence, 48 h; series mostly up to 57.5 µM
Excerpt: National Center for Advancing Translational Sciences [NCATS] Assay Overview: Chemotherapeutic drug responses vary from cancer to cancer and from patient to patient. […] ATPlite is a luminescence based assay reliant on the conversion of a luciferase substrate to light in the presence of ATP. As a cytotoxic compound will suppress growth and decrease the number of cells, the concentration of ATP will decrease, and less light signal will be detected in the well. […]
Inconclusive results are not listed. Active and inactive are the calls of the source. Calls come from the whole dose curve; as a rule, active = well fitted cell-killing curve with a large enough effect; inconclusive = small, poorly fitted or top-dose-only effect, or effect the other way; inactive = flat fitted curve, though single readings scatter.
Please reply with one of these outcomes: 1 (active), -1 (inactive)

Examples with answers:
CSc1ccc(C(=O)N[C@@H]2CCCC[C@@H]2NC(=O)CNC(=O)c2cc(C(F)(F)F)ccc2NC(=O)NC(C)C)cc1; -1
COC(=O)c1ccnc(-c2cc(C(=O)NCCc3ccccc3)ccn2)c1; -1
C[C@@H]1C[C@@H](O)[C@@]23CO[C@@H](O)[C@@H]2CCC[C@@H]3[C@@]12C[C@@H](c1ccoc1)OC2=O; -1
Cc1ccccc1NC(=O)Nc1ccc(CC(=O)N(C)[C@@H](CC(C)C)C(=O)NCC[C@H](NC(=O)[C@@H]2CCCN2S(=O)(=O)c2cc(Cl)cc(Cl)c2)C(=O)O)cc1; -1
CC(=O)OC1CC2(C)C3=CCC4(C)C5C(O)C(O)C(C(C)C)C5(C)CCC4(C)C3CCC2C(C)(C)C1OC1OC(CO)C(O)C(O)C1O (stereo not given); -1
C=C1C(=O)O[C@@H]2C[C@H](C)[C@@]3(O)C=C(C(C)=O)[C@]4(CC3C[C@H]12)C(=O)O[C@H]1C[C@@H](C)C(CCC(C)=O)=CC[C@H]14 (stereo not given in full); -1

Prompt: Status in this test for COc1ccc(C(=O)Nc2ncc(-c3ccc(C(=O)O)cc3)s2)cc1 ?
Response: 1

Prompt: Status in this test for OC[C@H]1O[C@@H](O[C@H]2[C@H](OCc3ccccc3)O[C@H](CO[C@@H]3OC[C@@H](O)[C@H](O)[C@H]3O)[C@@H](O)[C@@H]2O)[C@H](O)[C@@H](O)[C@@H]1O ?
Response: -1

Prompt: Status in this test for COc1ccc([C@@]2(O)c3c(ccc(CC=C(C)C)c3O)NC(=O)[C@@H]2OC)cc1 ?
Response: -1

Prompt: Status in this test for CC(Nc1ncnc2nc[nH]c12)c1cc2cccc(Cl)c2c(=O)n1-c1ccccc1 (stereo not given) ?
Response: -1

Prompt: Status in this test for CCCCc1ccc(C(=O)Nc2cc(-c3ccc(Cl)cc3)nn2-c2ccc(Cl)cc2)cc1 ?
Response: -1

Prompt: Status in this test for Cc1cc2c(F)c(Oc3ncnn4cc(OCC(C)O)c(C)c34)ccc2[nH]1 (stereo not given) ?
Response: -1

---

Test system: Tov112D
Assay: Primary qHTS to identify gynecologic anti-cancer compounds using libraries of approved drugs and bioactive compounds (AID 1345084); note: nearly all actives have a fitted effect of over 55% in size
Conditions: Gynecologic cancer cell panel viability, ATPlite luminescence, 48 h; series mostly up to 57.5 µM
Results filed as inconclusive are left out. The source made the active and inactive calls. Calls come from the whole dose curve; as a rule, active = well fitted cell-killing curve with a large enough effect; inconclusive = small, poorly fitted or top-dose-only effect, or effect the other way; inactive = flat fitted curve, though single readings scatter.
Please reply with one of these outcomes: active, inactive

Examples with answers:
CN[C@@H]1[C@H](O[C@H]2[C@H](O[C@@H]3[C@@H](O)[C@H](O)[C@@H](N=C(N)N)[C@H](O)[C@H]3N=C(N)N)O[C@@H](C)[C@]2(O)C=O)O[C@@H](CO)[C@H](O)[C@H]1O; inactive
O=C1CCC=CC1(O)C(=O)OCc1ccccc1O[C@@H]1O[C@H](CO)[C@@H](O)[C@H](O)[C@H]1O (some centres undefined); inactive
C/C=C/C=C/C(O)=C1\C(=O)[C@]2(C)C3C(C(=O)CC/C=C/C)=C(O)C4(C)C1[C@]1(C)O[C@@]4(O)[C@@]3(C)O[C@@]12O; inactive

Next up:
Prompt: Status in this test for c1cc(Nc2cc(C3CC3)[nH]n2)nc(Nc2ccc3nc[nH]c3c2)n1 ?
Response: active
